Tested on: Bacteroides ovatus
Experiment: Antimicrobial activity against Bacteroides ovatus assessed as percent susceptible isolates after 48 hrs by agar dilution method
Format: functional
The molecules listed here are annotated with their Activity.
Return type: number; implicit unit %.

Use the examples below as a reference point.
molecule	unit-label	experimental-result
O=C(N[C@H](CO)[C@H](O)c1ccc([N+](=O)[O-])cc1)C(Cl)Cl [CHLORAMPHENICOL]	%	98
C[C@@H](O)[C@H]1C(=O)N2C(C(=O)O)=C(SCCNC=N)C[C@H]12 [IMIPENEM ANHYDROUS]	%	95
CCC[C@@H]1C[C@@H](C(=O)N[C@@H]([C@H]2O[C@H](SC)[C@H](O)[C@@H](O)[C@H]2O)[C@H](C)Cl)N(C)C1 [CLINDAMYCIN]	%	16

Lookup: Read the entry CO[C@@]1(NC(=O)Cc2cccs2)C(=O)N2C(C(=O)O)=C(COC(N)=O)CS[C@@H]21 [CEFOXITIN] and write its reported Activity.
Found: 25

Lookup: Read the entry Cc1ncc([N+](=O)[O-])n1CCO [METRONIDAZOLE] and write its reported Activity.
Found: 100

Lookup: Read the entry C[C@@H](O)[C@H]1C(=O)N2C(C(=O)O)=C(S[C@@H]3CN[C@H](C(=O)N(C)C)C3)[C@H](C)[C@H]12 [MEROPENEM] and write its reported Activity.
Found: 98

Entry source: ChEMBL document CHEMBL1671716
